assay: Inhibition of PAF-induced platelet aggregation
pIC50 overview
As a rule, pIC50 stands for the negative log10 of the concentration, concentration in M.

COMPOUND	MEASURED RESULT
Cc1ncccc1C(C#N)N1CCN(C(=O)C(C)(C)C(F)(c2ccccc2)c2ccccc2)CC1 (centres undefined)	7.59
CC(=O)NC(CC(=O)N1CCN(C(C#N)c2cccnc2C)CC1)c1ccccc1 (centres undefined)	7.51
Cc1ncccc1C(C#N)N1CCN(C(=O)CC(NC(=O)c2ccccc2)c2ccccc2)CC1 (centres undefined)	8.04
CNC(CC(=O)N1CCN(C(C#N)c2cccnc2C)CC1)c1ccccc1 (centres undefined)	7.96

Param item = Cc1ncccc1C(C#N)N1CCN(C(=O)CC(NCc2cccnc2)c2ccccc2)CC1 (centres undefined) ; retrieve measured pIC50.
7.12

Then this compound: Cc1ncccc1C(C#N)N1CCN(C(=O)CC(c2ccccc2)N(C)Cc2ccccc2)CC1 (centres undefined)
7.70

Then this compound: Cc1ncccc1C(C#N)N1CCN(C(=O)CC(N)c2ccccc2)CC1 (centres undefined)
6.13

Then this compound: Cc1ncccc1C(C#N)N1CCN(C(=O)CC(c2ccccc2)N(Cc2ccccc2)Cc2ccccc2)CC1 (centres undefined)
7.39

Then this compound: Cc1ncccc1C(C#N)N1CCN(C(=O)CC(NC(=O)OC(C)(C)C)c2ccccc2)CC1 (centres undefined)
7.25

* * *

experiment: Inhibition of PAF-induced platelet aggregation
Binary call on IC50 with cut-off 40 nM: strictly below means fulfilled, and equality or higher means not fulfilled.

Here are 2 molecules together with their reported answers.
MOLECULE	ASSIGNED CATEGORY
Cc1ncccc1C(C#N)N1CCN(C(=O)[C@H](C)NC(c2ccccc2)c2ccccc2)CC1 (stereo partly specified)	fulfilled
Cc1ncccc1C(C#N)N1CCN(C(=O)[C@H](CO)NC(c2ccccc2)c2ccccc2)CC1 (stereo partly specified)	fulfilled

Lab note: confirm whether the reported IC50 for this molecule is below 40 nM, equality not counting. molecule: Cc1ncccc1C(C#N)N1CCN(C(=O)CN(C=O)C(c2ccccc2)c2ccccc2)CC1 (stereo unspecified)
fulfilled

Then this molecule: Cc1ncccc1C(C#N)N1CCN(C(=O)CC(NC(=O)OCc2ccccc2)c2ccccc2)CC1 (stereo unspecified)
fulfilled

Then this molecule: Cc1ncccc1C(C#N)N1CCN(C(=O)CNC(c2ccc(F)cc2)c2ccc(F)cc2)CC1 (stereo unspecified)
not fulfilled

Then this molecule: Cc1ncccc1C(C#N)N1CCN(C(=O)COC(c2ccccc2)c2ccccc2)CC1 (stereo unspecified)
not fulfilled

* * *

assay: Inhibition of PAF-induced platelet aggregation
IC50 overview
Value expressed in µM; do not type the unit.

Answered examples (10):
MOLECULE	IC50 (µM)
C#CCNC(CC(=O)N1CCN(C(C#N)c2cccnc2C)CC1)c1ccccc1 (stereo not given)	0.27
Cc1ncccc1C(C#N)N1CCN(C(=O)CC(NC(=O)N2CCCC2)c2ccccc2)CC1 (stereo not given)	0.064
C#CC(c1cccnc1C)N1CCN(C(=O)CNC(c2ccccc2)c2ccccc2)CC1 (stereo not given)	0.86
Cc1ncccc1C(C#N)N1CCN(C(=O)CC(NCc2ccccc2)c2ccccc2)CC1 (stereo not given)	0.0091
COC(=O)NC(CC(=O)N1CCN(C(C#N)c2cccnc2C)CC1)c1ccc(C(F)(F)F)cc1 (stereo not given)	0.012
Cc1ncccc1C(C#N)N1CCN(C(=O)CC(Nc2ccccc2)c2ccccc2)CC1 (stereo not given)	0.028
COC(=O)NC(CC(=O)N1CCN(C(C#N)c2cccnc2C)CC1)c1ccccc1 (stereo not given)	0.041
COC(=O)N(C)C(CC(=O)N1CCN(C(C#N)c2cccnc2C)CC1)c1ccccc1 (stereo not given)	0.02
Cc1ncccc1C(C#N)N1CCN(C(=O)CCC(c2ccccc2)c2ccccc2)CC1 (stereo not given)	0.08
Cc1ncccc1C(C#N)N1CCN(C(=O)C=C(c2ccccc2)c2ccccc2)CC1 (stereo not given)	0.026

Param item = Cc1ncccc1C(C#N)N1CCN(C(=O)CC(c2ccccc2)N2CCCC2=O)CC1 (stereo not given) ; retrieve measured IC50.
0.03

Then this molecule: Cc1ncccc1C(C#N)N1CCN(C(=O)CC(c2ccccc2)c2ccccc2)CC1 (stereo not given)
0.018

Then this molecule: C=CCNC(CC(=O)N1CCN(C(C#N)c2cccnc2C)CC1)c1ccccc1 (stereo not given)
0.018

Then this molecule: CCc1ncccc1C(C#N)N1CCN(C(=O)CNC(c2ccccc2)c2ccccc2)CC1 (stereo not given)
0.038

Then this molecule: Cc1ncccc1C(C#N)N1CCN(C(=O)CC(c2ccccc2)N2CCOC2=O)CC1 (stereo not given)
0.063

Then this molecule: Cc1ncccc1C(C#N)N1CCN(C(=O)CCNC(c2ccccc2)c2ccccc2)CC1 (stereo not given)
0.12

Then this molecule: Cc1ncccc1C(C#N)N1CCN(C(=O)CC(NC(=O)OCC(C)C)c2ccccc2)CC1 (stereo not given)
0.036

Then this molecule: Cc1ncccc1C(C#N)N1CCN(C(=O)CC(O)(c2ccccc2)c2ccccc2)CC1 (stereo not given)
0.017

Then this molecule: Cc1ncccc1C(C#N)N1CCN(C(=O)CNC2c3ccccc3-c3ccccc32)CC1 (stereo not given)
0.05

Then this molecule: Cc1ncccc1C(C#N)N1CCN(C(=O)[C@@H](C)NC(c2ccccc2)c2ccccc2)CC1 (stereo not given in full)
0.03

Each recorded value in this set is attributed to BindingDB's records for doi:10.1021/jm00072a019.
